Parameter pest or weed control at 500 g/ha: see the listing below.
Tested on: Echinochloa crus-galli (ECHCG)
Test: Post-emergence efficacy, Method A
Assay type: in vivo
Details: Echinochloa crus-galli, post-emergence, 312 h; Application Rate 500 g/Ha; evaluated after 13 days; Method A; read-out: Control of weed species after post-emergence application, ECHCG (100=total damage to plant; 0=no damage to plant)
Procedure: Seeds of a variety of test species were sown in standard soil in pots. […] After 13 days the test was evaluated (100=total damage to plant; 0=no damage to plant). […]
Quantity Name: pest or weed control at 500 g/ha (%)

CCOP(=O)(C[n+]1ccc(-c2ncccn2)cn1)OCC [Compound A230, 2,2,2-trifluoroacetate] = 60
N[C@H](CC[n+]1ccc(-c2ccncn2)cn1)C(=O)O [Compound A235] = 30
O=S(=O)([O-])CCCC[n+]1ccc(-c2ncccn2)cn1 [Compound A215] = 30
O=C(O)CC[n+]1ccc(-c2ncc(Cl)c(=O)[nH]2)cn1 [Compound A161, 2,2,2-trifluoroacetate] = 20
O=S(=O)([O-])CC[n+]1ccc(-c2ncc(CO)cn2)cn1 [Compound A170] = 80
Cc1cnc(-c2cc[n+](CCC(=O)O)nc2)c(C)c1 [Compound A177] = 0

---

System: Digitaria sanguinalis (DIGSA)
Experiment: Post-emergence efficacy, Method A
Type: in vivo
Conditions: Digitaria sanguinalis, post-emergence, 312 h; Application rate 500 g/Ha; evaluated after 13 days; 100=total damage to plant, 0=no damage to plant; read-out: Control of weed species after post-emergence application, DIGSA
Quantity Name: pest or weed control at 500 g/ha (%)

Cc1c[n+](CCS(=O)(=O)[O-])ncc1-c1ncccn1 = 70
Cc1cc(-c2cc[n+](CCS(=O)(=O)[O-])nc2)ncn1 = 70
O=S(=O)([O-])CCC[n+]1ccc(-c2ccc(O)nn2)cn1 = 70

---

Tested on: Euphorbia heterophylla (EPHHL)
Experiment: Post-emergence efficacy, Method A
Assay type: in vivo
Details: Euphorbia heterophylla, post-emergence, 312 h; Application rate 500 g/Ha; evaluated after 13 days; 100=total damage to plant, 0=no damage to plant; read-out: Control of weed species after post-emergence application, EPHHL
Catalogue of pest or weed control at 500 g/ha values
Quantity Name: pest or weed control at 500 g/ha (%)

O=c1cc(-c2cc[n+](CCS(=O)(=O)[O-])nc2)nc[nH]1 = 60
Cc1cccc(-c2cc[n+](CCS(=O)(=O)[O-])nc2)n1 = 60
O=C(O)CC[n+]1ccc(-c2ccccn2)cn1 = 60

---

System: Chenopodium album (CHEAL)
Experiment: Post-emergence efficacy, Method A
Type: in vivo
Details: Chenopodium album, post-emergence, 312 h; Application rate 500 g/Ha; evaluated after 13 days; 100=total damage to plant, 0=no damage to plant; read-out: Control of weed species after post-emergence application, CHEAL
Experimental: Seeds of a variety of test species were sown in standard soil in pots. […] After 13 days the test was evaluated (100=total damage to plant; 0=no damage to plant). […]
Quantity Name: pest or weed control at 500 g/ha

O=c1cc(-c2cc[n+](CCCS(=O)(=O)[O-])nc2)nc[nH]1 = 80%
Cc1cc(F)cnc1-c1cc[n+](CCS(=O)(=O)[O-])nc1 = 0%
O=C(O)CC[n+]1ccc(-c2cncc(C(F)(F)F)n2)cn1 = 70%
O=S(=O)([O-])CC[n+]1ccc(-c2cc(C(F)(F)F)ncn2)cn1 = 60%
O=S(=O)([O-])CC[n+]1ccc(-c2cccc(C(F)(F)F)n2)cn1 = 30%
O=S(=O)(O)CCC[n+]1ccc(-c2cnccn2)cn1 = 100%
Cc1cnc(-c2cc[n+](CCS(=O)(=O)[O-])nc2)nc1C = 20%
O=C(O)CC[n+]1ccc(-c2ncc(C(F)(F)F)cn2)cn1 = 50%
CN(C)c1ccnc(-c2cc[n+](CCS(=O)(=O)[O-])nc2)n1 = 30%
O=S(=O)([O-])CC[n+]1ccc(-c2cncc(C(F)(F)F)n2)cn1 = 100%
COc1ccnc(-c2cc[n+](CCC(=O)[O-])nc2)n1 = 70%
O=c1cc(-c2cc[n+](CCS(=O)(=O)[O-])nc2)nc[nH]1 = 60%
COc1nc(-c2cc[n+](CCC(=O)[O-])nc2)ncc1C = 20%
Cc1nc(-c2cc[n+](CCS(=O)(=O)[O-])nc2)ncc1Cl = 30%
O=C([O-])CC[n+]1ccc(-c2ncccc2F)cn1 = 50%
Cc1cc(Cl)cnc1-c1cc[n+](CCS(=O)(=O)[O-])nc1 = 50%
Cc1cc(=O)[nH]c(-c2cc[n+](CCS(=O)(=O)[O-])nc2)n1 = 40%
O=S(=O)([O-])CCC[n+]1ccc(-c2cnc(F)cn2)cn1 = 20%
Cc1cccnc1-c1cc[n+](CCS(=O)(=O)[O-])nc1 = 20%
O=S(=O)([O-])CCC[n+]1ccc(-c2ccnc(Cl)n2)cn1 = 100%
CCOC(=O)CC[n+]1ccc(-c2ccccn2)cn1 = 20%
N#Cc1ccnc(-c2cc[n+](CCCS(=O)(=O)[O-])nc2)n1 = 50%
Cc1cnc(-c2cc[n+](CCS(=O)(=O)[O-])nc2)c(C)c1 = 10%
CC(CC(=O)O)[n+]1ccc(-c2ncccn2)cn1 (stereo not drawn) [Compound A40, 2,2,2-trifluoroacetate] = 70%
O=S(=O)([O-])CC[n+]1ccc(-c2ccccn2)cn1 = 90%
O=C(O)CC[n+]1ccc(-c2ncccc2Cl)cn1 = 40%
CS(=O)(=O)c1cnc(-c2cc[n+](CCS(=O)(=O)[O-])nc2)nc1 = 90%
Cc1n[n+](CCC(=O)O)ccc1-c1ncccn1.O=C([O-])C(F)(F)F = 30%
Cc1cncc(-c2cc[n+](CCS(=O)(=O)[O-])nc2)n1 = 80%
O=S(=O)([O-])CC[n+]1ccc(-c2ncccc2Cl)cn1 = 60%
